biological target: Mesothelin (SwissProt reference Q13421-3) (Homo sapiens, UniProt Q13421 37-622); experiment: cell-based or functional assay
parameterMeasured: IC50 (nM), HT29 meso+ cells, MTT proliferation assay
Value expressed in nM; do not type the unit.

Here are 2 binders together with their reported answers.
Inquiry: Please supply the value of reported IC50 (nM), HT29 meso+ cells, MTT proliferation assay for the item Example 78, conjugate of anti-mesothelin antibody MF-Ta (antibody, human IgG1, lambda, V domains shown, toxophore-linker on Cys sulfur, sites not given) VH: QVELVQSGAEVKKPGESLKISCKGSGYSFTSYWIGWVRQAPGKGLEWMGIIDPGDSRTRYSPSFQGQVTISADKSISTAYLQWSSLKASDTAMYYCARGQLYGGTYMDGWGQGTLVTVSS VL: DIALTQPASVSGSPGQSITISCTGTSSDIGGYNSVSWYQQHPGKAPKLMIYGVNNRPSGVSNRFSGSKSGNTASLTISGLQAEDEADYYCSSYDIESATPVFGGGTKLTVLG
Reply text: 1.1

Inquiry: Please supply the value of reported IC50 (nM), HT29 meso+ cells, MTT proliferation assay for the item Example 378, conjugate of anti-mesothelin antibody MF-Ta (antibody, human IgG1, lambda, V domains shown, toxophore-linker on Lys NH, sites not given) VH: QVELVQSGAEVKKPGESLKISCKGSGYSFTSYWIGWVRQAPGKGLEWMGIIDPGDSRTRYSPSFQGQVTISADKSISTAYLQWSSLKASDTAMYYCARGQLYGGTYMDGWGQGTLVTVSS VL: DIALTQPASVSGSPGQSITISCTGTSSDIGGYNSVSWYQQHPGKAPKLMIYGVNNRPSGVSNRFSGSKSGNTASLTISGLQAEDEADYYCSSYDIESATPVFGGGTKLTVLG
Reply text: 0.04

Moving on to another binder below.
Inquiry: Please supply the value of reported IC50 (nM), HT29 meso+ cells, MTT proliferation assay for the item Example 99, conjugate of anti-mesothelin antibody MF-Ta (antibody, human IgG1, lambda, V domains shown, toxophore-linker on Cys sulfur, sites not given) VH: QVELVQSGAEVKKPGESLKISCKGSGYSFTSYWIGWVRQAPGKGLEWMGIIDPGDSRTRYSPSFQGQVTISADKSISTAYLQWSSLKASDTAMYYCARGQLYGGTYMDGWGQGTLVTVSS VL: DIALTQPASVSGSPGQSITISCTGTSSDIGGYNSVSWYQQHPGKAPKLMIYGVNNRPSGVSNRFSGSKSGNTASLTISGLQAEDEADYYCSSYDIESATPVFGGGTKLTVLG
Reply text: 0.27
